measuredTarget: recombinant form of Glutaminase 1 (GAC) (Homo sapiens, UniProt O94925)
protocolSummary: Recombinant Enzyme Assay (GAC coupled to GDH, NADH absorbance, no preincubation)
Assay type: biochemical
conditionInfo: no preincubation; read-out: GAC Delta N2 IC50 no preinc
quantityMeasured: pIC50
Field pIC50 (float): negative decimal logarithm of the concentration in molar.

Example cases with answers are listed next.
> print(dat)
                                   molecule  quantitymeasured  recordedvalue
1  COCCOC(C(=O)Nc1nnc(CCCCc2nnc(NC(=O)C(OCCOC)c3ccccc3)s2)s1)c1ccccc1 (centres unmarked)             pIC50           5.77
2  O=C(Nc1nnc(CCSCCc2nnc(NC(=O)C3CCOC3)s2)s1)C1CCOC1 (centres unmarked)             pIC50           5.54
3  COc1ccc2c(c1)CC(C(=O)Nc1nnc(CCCCc3nnc(NC(=O)C4Cc5cc(OC)ccc5O4)s3)s1)O2 (centres unmarked)             pIC50           5.77
4  O=C(Cc1ccccc1F)Nc1nnc(CCCCc2nnc(NC(=O)Cc3ccccc3F)s2)s1             pIC50           6.92
5  O=C(Nc1nnc(CCCCc2nnc(NC(=O)C(c3ccccc3)N3CCNCC3)s2)s1)C(c1ccccc1)N1CCNCC1 (centres unmarked)             pIC50           5.21
6  COc1ccc(CC(=O)Nc2nnc(CCCCc3nnc(NC(=O)Cc4ccc(OC)c(OC)c4)s3)s2)cc1OC             pIC50           6.80

Lab note: next molecule to report on.
q: For the molecule O=C(Nc1nnc(CCCCc2nnc(NC(=O)C(O)Cc3ccccc3)s2)s1)C(O)Cc1ccccc1 (centres unmarked) , what pIC50 is on record?
a: 6.16
